Could you please report measured DC50 for the items listed next?
molecular target: KRAS-G12D (Homo sapiens, UniProt P01116, G12D); construct: endogenous in cells; host or cells: A-427 (ATCC), AGS, AsPc-1, Panc 04.03; assay: KRAS-G12D degradation assay (Western Blot), A-427 cells; format: cell-based; conditions: A427 cells, 24 h; class symbols
Sequence (P01116 1-188 isoform P01116-2 G12D): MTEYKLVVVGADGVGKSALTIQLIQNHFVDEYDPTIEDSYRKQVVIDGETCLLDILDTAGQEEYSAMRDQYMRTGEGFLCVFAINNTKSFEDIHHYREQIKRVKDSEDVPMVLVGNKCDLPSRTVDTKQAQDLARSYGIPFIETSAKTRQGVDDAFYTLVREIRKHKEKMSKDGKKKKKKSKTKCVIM

Lookup: Fill in the blank: the reported DC50 of Cc1ccc(C(=O)N2CCC3(CCC(CN4CCN(CC5(COc6nc(N7CC8CCC(C7)N8)c7cnc(-c8cccc9cccc(Cl)c89)c(F)c7n6)CC5)CC4)CC3)CC2)cc1N1CCC(=O)NC1=O [Example 45] is ____.
Found: 1000 to 10000 nM

Lookup: Any idea what its DC50 is? The compound is C#Cc1c(F)ccc2cc(O)cc(-c3ncc4c(N5CC6CCC(C5)N6)nc(OCC56CC(CN7CCN(CCC8CCC9(CC8)CCN(C(=O)c8ccc(Cl)c(N%10CCC(=O)NC%10=O)c8)CC9)CC7)(C5)C6)nc4c3F)c12 [Example 56]
Found: ≤ 50 nM

Lookup: Please report the recorded DC50 for C#Cc1c(F)ccc2cc(O)cc(-c3ncc4c(N5CC6CCC(C5)N6)nc(OCC5(CN6CCC(CN7CCC8(CC7)CCN(C(=O)c7ccc(OC)c(N9CCC(=O)NC9=O)c7)CC8)CC6)CC5)nc4c3F)c12 [Example 38] .
Found: ≤ 50 nM

Lookup: # get_value(readout='DC50', item= C#Cc1c(F)ccc2cc(O)cc(-c3ncc4c(N5CC6CCC(C5)N6)nc(OCC5(CN6CCC(CCN7CCN(C(=O)c8ccc(Cl)c(N9CCC(=O)NC9=O)c8)CC7)CC6)CC5)nc4c3F)c12 [Example 28] )
Found: 1000 to 10000 nM

Lookup: Please report the recorded DC50 for C#Cc1c(F)ccc2cc(O)cc(-c3ncc4c(N5CC6CCC(C5)N6)nc(OCC5(CN6CCN(CCCC7CCN(C(=O)c8ccc(Cl)c(N9CCC(=O)NC9=O)c8)CC7)CC6)CCC5)nc4c3F)c12 [Example 24] .
Found: ≤ 50 nM

* * *

Target: KRAS-G12D (Homo sapiens, UniProt P01116, G12D)
Construct: endogenous in cells; host or cells: A-427 (ATCC), AGS, AsPc-1, Panc 04.03
Assay: KRAS-G12D degradation assay (Western Blot), A-427 cells
Type: cell-based
Conditions: A427 cells, 24 h; numeric values
From the text: The degradation effects of the compounds on KRAS-G12D were investigated on KRAS G12D mutant human lung cancer cell A-427 (ATCC), KRAS G12D mutant human gastric cancer cell AGS, KRAS G12D mutant human metastatic pancreatic cancer cell AsPc-1, and KRAS G12D mutant human pancreatic adenocarcinoma cell Panc 04.03. […]
Readout Type: DC50

Lookup: Reported DC50, compound CCc1cccc2cc(O)cc(-c3ccc4c(N5CC6CCC(C5)N6)nc(OCC5(CN6CCN(CC7CCC8(CC7)CCN(C(=O)c7ccc(OC)c(N9CCC(=O)NC9=O)c7)CC8)CC6)CC5)nc4c3F)c12 [Example 83] : ____
Found: 33.9 nM

Lookup: Give the measured DC50 of C#Cc1c(F)ccc2cc(O)cc(-c3ncc4c(N5CC6CCC(C5)N6)nc(OC[C@H](C)CN5CCN(CC6CCC7(CC6)CCN(C(=O)c6ccc(OC)c(N8CCC(=O)NC8=O)c6)CC7)CC5)nc4c3F)c12 [Example 90] .
Found: 0.86 nM

Lookup: Report DC50 for CCc1cccc2cc(O)cc(-c3ccc4c(N5CC6CCC(C5)N6)nc(OCC5(CN6CCN(CC7CCC8(CC7)CCN(C(=O)c7ccc(C)c(N9CCC(=O)NC9=O)c7)CC8)CC6)CC5)nc4c3F)c12 [Example 70] please.
Found: 14.6 nM

Lookup: Give the measured DC50 of C#Cc1cccc2cc(O)cc(-c3ccc4c(N5CC6CCC(C5)N6)nc(OCC5(CN6CCN(CC7CCC8(CC7)CCN(C(=O)c7ccc(C)c(N9CCC(=O)NC9=O)c7)CC8)CC6)CC5)nc4c3F)c12 [Example 77] .
Found: 1.76 nM

Lookup: Consider the compound CCc1c(F)ccc2cc(O)cc(-c3ccc4c(N5CC6CCC(C5)N6)nc(OCC5(CN6CCN(CC7CCC8(CC7)CCN(C(=O)c7ccc(C)c(N9CCC(=O)NC9=O)c7)CC8)CC6)CC5)nc4c3F)c12 [Example 75] and give its measured DC50.
Found: 4.13 nM

* * *

biological target: KRAS-G12D (Homo sapiens, UniProt P01116, G12D); construct: endogenous in cells; host or cells: A-427 (ATCC), AGS, AsPc-1, Panc 04.03; assay: KRAS-G12D degradation assay (Western Blot), A-427 cells; assay type: cell-based; conditions: A427 cells, 24 h; class symbols
Exercise: for every item that follows, state its recorded DC50.

Lookup: Please give the measured DC50 for this compound: C#Cc1c(F)ccc2cc(O)cc(-c3ncc4c(N5CC6CCC(C5)N6)nc(OCC5(CN6CCN(CC7CCN(C(=O)c8ccc(Cl)c(N9CCC(=O)NC9=O)c8)CC7)CC6)CC5)nc4c3F)c12 [Example 27]
Found: 1000 to 10000 nM

Lookup: Param item = C#Cc1c(F)ccc2cc(O)cc(-c3ncc4c(N5CC6CCC(C5)N6)nc(OCC5(CN6CCC(CCOCC7CCN(C(=O)c8ccc(Cl)c(N9CCC(=O)NC9=O)c8)CC7)CC6)CC5)nc4c3F)c12 [Example 10] ; retrieve measured DC50.
Found: ≤ 50 nM

Lookup: So what's the measured DC50 for this one? CCc1c(F)ccc2cc(O)cc(-c3ncc4c(N5CC6CCC(C5)N6)nc(OCC5(CN6CCN(CC7CCC8(CC7)CCN(C(=O)c7ccc(Cl)c(N9CCC(=O)NC9=O)c7)CC8)CC6)CC5)nc4c3F)c12 [Example 30]
Found: ≤ 50 nM

* * *

target: KRAS-G12D (Homo sapiens, UniProt P01116, G12D); construct: endogenous in cells; host or cells: A-427 (ATCC), AGS, AsPc-1, Panc 04.03; experiment: KRAS-G12D degradation assay (Western Blot), AGS cells; assay type: cell-based; settings: 24 h
Can you tell me Dmax for the items I'm about to list?
Field: numeric (%). Do not append units.

Lookup: Lab request: please report Dmax under test system KRAS-G12D (Homo sapiens, UniProt P01116, G12D) for "CCc1c(F)ccc2cc(O)cc(-c3ccc4c(N5CC6CCC(C5)N6)nc(OCC5(CN6CCN(CC7CCC8(CC7)CCN(C(=O)c7ccc(C)c(N9CCC(=O)NC9=O)c7)CC8)CC6)CC5)nc4c3F)c12"
Found: 89.2

Lookup: // fetch KRAS-G12D (Homo sapiens, UniProt P01116, G12D) Dmax for C#Cc1c(F)ccc2cc(O)cc(-c3ncc4c(N5CC6CCC(C5)N6)nc(OCC(C)CN5CCN(CC6CCC7(CC6)CCN(C(=O)c6ccc(OC)c(N8CCC(=O)NC8=O)c6)CC7)CC5)nc4c3F)c12 (stereo not drawn)
Found: 92.2

Lookup: Short answer please: Dmax, KRAS-G12D (Homo sapiens, UniProt P01116, G12D), entry "CCc1cccc2cc(O)cc(-c3ncc4c(N5CC6CCC(C5)N6)nc(OCC5(CN6CCN(CC7CCC8(CC7)CCN(C(=O)c7ccc(C)c(N9CCC(=O)NC9=O)c7)CC8)CC6)CC5)nc4c3F)c12"
Found: 97.2

Lookup: Notebook: pull reported Dmax for KRAS-G12D (Homo sapiens, UniProt P01116, G12D), entry "CCc1cccc2cc(O)cc(-c3ncc4c(N5CC6CCC(C5)N6)nc(OCC5(CN6CCN(CC7CCC8(CC7)CCN(C(=O)c7ccc(OC)c(N9CCC(=O)NC9=O)c7)CC8)CC6)CC5)nc4c3F)c12"
Found: 100

Lookup: Dmax of "C#Cc1c(F)ccc2cc(O)cc(-c3ncc4c(N5CC6CCC(C5)N6)nc(OC[C@H](C)CN5CCN(CC6CCC7(CC6)CCN(C(=O)c6ccc(OC)c(N8CCC(=O)NC8=O)c6)CC7)CC5)nc4c3F)c12" on KRAS-G12D (Homo sapiens, UniProt P01116, G12D)?
Found: 98.9

Lookup: Dmax / KRAS-G12D (Homo sapiens, UniProt P01116, G12D) / "CCc1c(F)ccc2cc(O)cc(-c3ncc4c(N5CC6CCC(C5)N6)nc(OCC5(CN6CCN(CC7CCC8(CC7)CCN(C(=O)c7ccc(OC)c(N9CCC(=O)NC9=O)c7)CC8)CC6)CC5)nc4c3F)c12"
Found: 99.6

Lookup: Hi! What's the reported Dmax for "C#Cc1cccc2cc(O)cc(-c3ccc4c(N5CC6CCC(C5)N6)nc(OCC5(CN6CCN(CC7CCC8(CC7)CCN(C(=O)c7ccc(C)c(N9CCC(=O)NC9=O)c7)CC8)CC6)CC5)nc4c3F)c12" on KRAS-G12D (Homo sapiens, UniProt P01116, G12D)?
Found: 100

Lookup: Look up Dmax with KRAS-G12D (Homo sapiens, UniProt P01116, G12D) for this compound: "C#Cc1cccc2cc(O)cc(-c3ncc4c(N5CC6CCC(C5)N6)nc(OCC5(CN6CCN(CC7CCC8(CC7)CCN(C(=O)c7ccc(OC)c(N9CCC(=O)NC9=O)c7)CC8)CC6)CC5)nc4c3F)c12"
Found: 97.7

Lookup: // lookup Dmax | system=KRAS-G12D (Homo sapiens, UniProt P01116, G12D) | key= "Cc1ccc(C(=O)N2CCC3(CCC(CN4CCN(CC5(COc6nc(N7CC8CCC(C7)N8)c7cnc(-c8cc(O)cc(Cl)c8C8CC8)c(F)c7n6)CC5)CC4)CC3)CC2)cc1N1CCC(=O)NC1=O"
Found: 80.3
